B1: TRIM55 (parent)
chain: FQMEKIEHGYENMNHFTVNLNREE

# Variants of: B1
# TEST: protein stability index of a GFP-peptide fusion (GPS, HEK-293T) (PSI 1-6); higher = more stable;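 note: lentivirally expressed fusions sorted by FACS into six bins by GFP to DsRed ratio, PSI derived from sequencing read proportions per bin multiplied by bin number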
# RUN_CONDITIONS: c terminus: a fixed tail appended
METRIC_NAME: protein stability index

>>> df
                    sequence  value_reported
 0  FQMGKIEHGYENMNHFTVNLNREE            2.45
 1  FQMEKIEHGYENMNHFTVNLWREE            1.13
 2  FQMEKIEHGYENANHFTVNLNREE            3.23
 3  FQMEKIEHGYENMNHFTVNANREE             3.2
 4  FQMEKIEHGYENMNHFRVNLNREE             3.1
 5  FQMEKILHGYENMNHFTVNLNREE            2.46
 6  FQMEIIEHGYENMNHFTVNLNREE            2.24
 7  FQMEKIEHGYENMNHFTQNLNREE            4.15
 8  FQMEKINHGYENMNHFTVNLNREE             2.3
 9  FQMEKIEHGYENMNSFTVNLNREE            3.14
10  FQMEKIEHGYHNMNHFTVNLNREE            1.95
11  FQMEKIEHGYENMNHSTVNLNREE            4.41
12  FQMEKIEHGYEKMNHFTVNLNREE            2.44
13  FQMEKIEHGYENMNHFTVLLNREE            2.22
14  FQMEHIEHGYENMNHFTVNLNREE            2.61
15  FQQEKIEHGYENMNHFTVNLNREE            3.41
16  FQMEKIEHGYENMNHFTVNLNQEE             3.1
17  FQMEKIEHGYEDMNHFTVNLNREE            3.65
